These entries and their values trace back to PubChem BioAssay (NCI).

Overview of recorded growth for various molecules
# Tested on: A549/ATCC NSCLC
# EXPERIMENT SUMMARY: NCI-60 one-dose screen, 48 h (100 = growth as untreated, 0 = no growth, -100 = all killed)
# CONDITIONS USED: 10 µM
This is part of a sample that, as a whole, favours compounds with a hit. Of some 83,000 tested, about 20% had one in any assay.

[
  {
    "MOLECULE": "Cc1nc2ccc(-n3c(-c4ccc(Cl)cc4)nc4ccccc4c3=O)cc2n1Cc1ccccc1",
    "growth, %": 79.6
  },
  {
    "MOLECULE": "COc1ccc(-c2ccc(-c3ccc(C(=N)N)c(F)c3)s2)cc1",
    "growth, %": -81.9
  },
  {
    "MOLECULE": "FC(F)(F)c1ccc(-c2cnc(Br)nc2NC2CCCCCC2)cc1",
    "growth, %": 28.8
  },
  {
    "MOLECULE": "COCCNCC(O)Cn1c2ccc(Cl)cc2c2cc(Cl)ccc21 (centres undefined)",
    "growth, %": -10.2
  }
]

====

# System: SF-539 CNS
# EXPERIMENT SUMMARY: NCI-60 one-dose screen, 48 h
# CONDITIONS USED: 10 µM
Compounds without any hit were thinned out: in the full panel of roughly 83,000, 20% have a hit. Activity calls are given as the source filed them. The calls were made as follows: active = growth percent below 10; inactive = the rest.
Classes used: active, inactive

[
  {
    "QUERY SMILES": "Cn1c([N+](=O)[O-])cnc1/C=C1\\Oc2ccc(Br)cc2C1=O",
    "ASSIGNED LABEL": "active"
  },
  {
    "QUERY SMILES": "COc1ccc(Cn2cc3c(c2-c2cc(OC)c(OC)c(OC)c2)CCc2cnoc2-3)cc1N",
    "ASSIGNED LABEL": "active"
  },
  {
    "QUERY SMILES": "Nc1nc(SCC#CCCl)c2[nH]cnc2n1",
    "ASSIGNED LABEL": "inactive"
  },
  {
    "QUERY SMILES": "COc1cc(-c2cc(-c3ccc(C)cc3)nc3nc(N)[nH]c(=O)c23)ccc1Oc1ccnc2cc(Cl)ccc12",
    "ASSIGNED LABEL": "inactive"
  },
  {
    "QUERY SMILES": "COc1ccc(-c2nnc(SC/C(=N\\O)c3ccccc3)o2)cc1",
    "ASSIGNED LABEL": "inactive"
  }
]

====

# Tested on: A498 renal
# EXPERIMENT SUMMARY: NCI-60 one-dose screen, 48 h (100 = growth as untreated, 0 = no growth, -100 = all killed)
# CONDITIONS USED: 10 µM
This is part of a sample that, as a whole, favours compounds with a hit. Of some 83,000 tested, about 20% had one in any assay.
Overview of recorded growth for various compounds
REPORTED METRIC: growth (%)

[
  {
    "COMPOUND": "Nc1ncncc1-c1ccc(F)cc1",
    "TARGET OR TEST SYSTEM": "A498 renal",
    "RECORDED RESULT": 95.2
  },
  {
    "COMPOUND": "O=NN(CCCl)C(=O)Nc1ccc(NC(=O)N(CCCl)N=O)cc1",
    "TARGET OR TEST SYSTEM": "A498 renal",
    "RECORDED RESULT": 67.1
  },
  {
    "COMPOUND": "O=C1c2cc(Cl)ccc2-c2c(O)cc(Cl)cc21",
    "TARGET OR TEST SYSTEM": "A498 renal",
    "RECORDED RESULT": 109
  },
  {
    "COMPOUND": "S=C(Cc1ccc(-c2ccccc2)cc1)N1CCOCC1",
    "TARGET OR TEST SYSTEM": "A498 renal",
    "RECORDED RESULT": 82
  },
  {
    "COMPOUND": "COc1cc(Cn2c(-c3ccccc3)cc3c2-c2oncc2CC3)cc(OC)c1",
    "TARGET OR TEST SYSTEM": "A498 renal",
    "RECORDED RESULT": -14.7
  },
  {
    "COMPOUND": "COc1ccc(C(=O)/C=C/c2cc(-c3ccc(OC)c(OC)c3)n[nH]2)cc1OC",
    "TARGET OR TEST SYSTEM": "A498 renal",
    "RECORDED RESULT": -40.7
  },
  {
    "COMPOUND": "Cc1ccccc1[P+](Cc1ccccc1)(c1ccccc1)c1ccccc1",
    "TARGET OR TEST SYSTEM": "A498 renal",
    "RECORDED RESULT": 37
  },
  {
    "COMPOUND": "CCCCn1c(=O)[nH]c(N)c(C(c2ccc(Cl)cc2)c2c(N)[nH]c(=O)n(CCCC)c2=O)c1=O",
    "TARGET OR TEST SYSTEM": "A498 renal",
    "RECORDED RESULT": 89.3
  },
  {
    "COMPOUND": "CC(=O)[C@H]1CC[C@H]2[C@@H]3CC[C@@H]4CC=C(C=O)C[C@]4(C)[C@H]3CC[C@]12C",
    "TARGET OR TEST SYSTEM": "A498 renal",
    "RECORDED RESULT": 76.8
  },
  {
    "COMPOUND": "CCOC(=O)Nc1ccc2c(c1)C(=O)N(CCOC)c1ccccc1O2",
    "TARGET OR TEST SYSTEM": "A498 renal",
    "RECORDED RESULT": 4.67
  },
  {
    "COMPOUND": "O=C(c1ccccc1)C(Nc1ccccc1)c1ccccc1 (configuration not stated)",
    "TARGET OR TEST SYSTEM": "A498 renal",
    "RECORDED RESULT": 94.6
  },
  {
    "COMPOUND": "Cc1cc2cc3c(=O)[nH]c(=O)cc-3n(CC(O)C(O)C(O)CO)c2cc1C (configuration not stated)",
    "TARGET OR TEST SYSTEM": "A498 renal",
    "RECORDED RESULT": 109
  },
  {
    "COMPOUND": "C=CCNC(=S)NN",
    "TARGET OR TEST SYSTEM": "A498 renal",
    "RECORDED RESULT": 81
  },
  {
    "COMPOUND": "O=[N+]([O-])c1ccc(Br)o1",
    "TARGET OR TEST SYSTEM": "A498 renal",
    "RECORDED RESULT": 102
  },
  {
    "COMPOUND": "C/C(=N/NC(=O)c1sc(=S)n(C)c1N)c1cc2cc(Cl)ccc2o1",
    "TARGET OR TEST SYSTEM": "A498 renal",
    "RECORDED RESULT": -3.76
  },
  {
    "COMPOUND": "CCc1ccc(-c2nnc(COc3ccc(-c4nc5ccccc5[nH]4)cc3OC)o2)cc1",
    "TARGET OR TEST SYSTEM": "A498 renal",
    "RECORDED RESULT": 88.8
  },
  {
    "COMPOUND": "COc1cccc2c1O/C(=C\\c1ncc([N+](=O)[O-])n1C)C2=O",
    "TARGET OR TEST SYSTEM": "A498 renal",
    "RECORDED RESULT": -33.4
  }
]
